system-name: human ether-à-go-go-related gene (hERG) potassium channel (human, UniProt Q12809);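 also: peak tail current of the secondary pulse compared with the same well before compound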
Sequence (Q12809 whole entry, looked up): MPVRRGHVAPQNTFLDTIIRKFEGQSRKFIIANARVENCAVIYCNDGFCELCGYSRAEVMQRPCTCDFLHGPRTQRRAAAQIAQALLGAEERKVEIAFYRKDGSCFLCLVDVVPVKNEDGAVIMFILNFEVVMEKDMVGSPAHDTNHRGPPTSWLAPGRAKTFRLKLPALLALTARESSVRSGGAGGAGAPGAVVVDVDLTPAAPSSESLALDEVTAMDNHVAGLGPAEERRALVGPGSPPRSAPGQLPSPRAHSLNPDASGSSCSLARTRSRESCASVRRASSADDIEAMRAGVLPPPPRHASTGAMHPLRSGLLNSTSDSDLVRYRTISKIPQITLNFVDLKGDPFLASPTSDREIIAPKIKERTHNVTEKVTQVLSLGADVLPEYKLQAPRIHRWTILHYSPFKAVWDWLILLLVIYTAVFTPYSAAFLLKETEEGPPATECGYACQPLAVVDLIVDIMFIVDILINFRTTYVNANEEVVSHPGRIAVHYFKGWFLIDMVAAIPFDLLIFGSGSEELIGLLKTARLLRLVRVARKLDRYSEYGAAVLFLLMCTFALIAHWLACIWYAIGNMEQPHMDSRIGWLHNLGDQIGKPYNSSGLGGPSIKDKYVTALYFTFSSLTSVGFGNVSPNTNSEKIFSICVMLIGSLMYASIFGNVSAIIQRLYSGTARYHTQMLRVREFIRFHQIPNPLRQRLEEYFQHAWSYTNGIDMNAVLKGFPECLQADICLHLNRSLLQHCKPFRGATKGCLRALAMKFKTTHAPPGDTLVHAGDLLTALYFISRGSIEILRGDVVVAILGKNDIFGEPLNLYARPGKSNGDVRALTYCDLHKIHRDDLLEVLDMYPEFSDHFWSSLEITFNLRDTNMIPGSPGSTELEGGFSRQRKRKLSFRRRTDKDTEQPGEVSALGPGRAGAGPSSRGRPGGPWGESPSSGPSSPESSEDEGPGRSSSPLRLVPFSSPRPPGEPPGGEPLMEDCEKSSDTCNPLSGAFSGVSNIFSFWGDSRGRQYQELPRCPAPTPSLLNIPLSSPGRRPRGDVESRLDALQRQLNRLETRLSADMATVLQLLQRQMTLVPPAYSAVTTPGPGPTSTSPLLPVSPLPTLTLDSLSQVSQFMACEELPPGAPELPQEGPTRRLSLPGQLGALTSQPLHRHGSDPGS
test: primary screen, population patch clamp on CHO cells stably expressing hERG; higher = less effect of the substance
Among all 310,000 compounds or so, about 14,000 (4.5%) showed an effect of 50% or more. Effects have a minus sign here. For the sample, strong results were picked, then their nearest neighbours and some compounds at random.
# hERG current change (%, negative = inhibition) at 10uM per entry
The reply should contain only the number, in %.

Below are worked cases with known answers.
>>> measurement("COc1ccc(CN(C)CC(=O)Nc2ccc(Cl)cc2F)c(OC)c1.O=C(O)C(=O)O")
-16.1
>>> measurement("CCOc1ccc(CN2CCN(C3CCSCC3)CC2CCO)cc1 (centres unmarked)")
-74.3
>>> measurement("COc1ccccc1-n1ccnc(SCC(=O)NCc2ccccc2Cl)c1=O")
8.39
>>> measurement("O=C(NCC(=O)N1CCN(C/C=C/c2ccccc2)CC1)c1ccc(OC(F)F)cc1")
-79.5

Alright, here's another compound for you.
# input Please look up its hERG current change (%, negative = inhibition) at 10uM: Cc1ccc(CN2CCN(Cc3ccc(OCCO)cc3)CC2CCO)o1 (centres unmarked)
# output 1.29

Where do the numbers come from? From paper PMC4336329.
